tested on: SR leukemia; assay: NCI-60 one-dose screen, 48 h; conditions: 10 µM unless noted
About 83,000 compounds went through this panel and 20% of them were active in at least one assay; those are over-represented in the sample as a whole. The source made the active and inactive calls. The calls were made as follows: active = growth percent below 10; inactive = the rest.
Bench note: report the call from active, inactive

See these solved cases before continuing.
Query block: Per the records of this test, what outcome belongs to COC(=O)[C@]12CC[C@@H](C)[C@H](C)[C@@H]1C1=CC[C@@H]3[C@@]4(C)C=C(O)C(=O)C(C)=C4CC[C@@]3(C)[C@]1(C)CC2 ?
Result block: inactive

Query block: Per the records of this test, what outcome belongs to Cc1nnc2nc(N)[nH]n2c1=O ?
Result block: inactive

Query block: Per the records of this test, what outcome belongs to CC(=O)O[C@H]1CC[C@@]2(C)[C@@H](CC[C@@H]3[C@@H]2CC(=O)[C@@]2(C)[C@H]3C[C@@H](C3CCCC3=O)[C@@H]2C(C)=O)C1 (stereo not given in full) ?
Result block: inactive

Query block: Per the records of this test, what outcome belongs to C=C(C)[C@@H]1CC[C@]2(C)CC[C@]3(C)[C@H](CC[C@@H]4[C@@]5(C)CCCNC(C)(C)[C@@H]5CC[C@]43C)[C@@H]12 ?
Result block: active

Query block: Per the records of this test, what outcome belongs to C#Cc1cc2c(N)c(C(=O)c3cc(OC)c(OC)c(OC)c3)[nH]c2cc1OC ?
Result block: active

Next:
Query block: Per the records of this test, what outcome belongs to Cc1cc(N(CCCNc2ccnc3cc(Cl)ccc23)Cc2ccco2)nc(Cl)n1 ?
Result block: inactive

Query block: Per the records of this test, what outcome belongs to COc1cc(/C=N/Nc2ncnc3c2c(C)nn3-c2ccc(F)cc2)ccc1O ?
Result block: inactive

Query block: Per the records of this test, what outcome belongs to Cn1cc(-c2nc(-c3c[nH]c4ncccc34)cs2)c2cc(F)ccc21 ?
Result block: inactive

----------
Give measured growth for each item. Keep answers brief.
test system: HCT-15 colon; assay: NCI-60 one-dose screen, 48 h (100 = growth as untreated, 0 = no growth, -100 = all killed); conditions: 10 µM unless noted
The panel holds about 83,000 compounds, 20% with a hit somewhere; the sample as a whole holds those more often. Calls of active or inactive are those of the source. How the source made its calls: active means growth percent below 10; inactive means the rest.

Below, each entry is followed by its recorded growth result.
# compound Cc1ccncc1C(=O)O ; its growth = 104% (inactive)

# compound Cc1cc(N(CCCNc2ccnc3cc(Cl)ccc23)Cc2ccco2)nc(N2CCN(C)CC2)n1 ; its growth = 16.9% (inactive)

# compound COc1ccc(-c2nc3ncccn3c2-c2nc3ccc(Br)cc3[nH]2)cc1 ; its growth = 84.6% (inactive)

# compound CN1CCN(c2ccc3nc(-c4[nH]ncc4Nc4ncnc5c4OCCCN5)[nH]c3c2)CC1 ; its growth = -64.7% (active)

# compound Cn1c2c(Cl)c(Cl)ccc2c2c(C#N)c[nH]c(=O)c21 ; its growth = 99% (inactive)

# compound Nc1nc(Br)nc2c1ncn2C1CC(O)C(CO)O1 (configuration not stated) ; its growth = 59.1% (inactive)

# compound CC1=CC(=O)N(c2cccc3c(N4C(=O)C=C(C)C4=O)cccc23)C1=O ; its growth = -2.7% (active)

# compound O=C(O)c1cccc2c1-c1ccc(Cl)cc1C2 ; its growth = 102% (inactive)

# compound CCCCC(=O)OC1CCCCC1C (configuration not stated) ; its growth = 108% (inactive)

# compound C=C(C)[C@@H]1CC[C@]2(C)[C@H](CC=C3[C@@H]4CC(C)(C)CC[C@]4(C(=O)OC)CC[C@]32C)[C@@]1(C)CC/C(N)=N/O ; its growth = 18.5% (inactive)

Hi team, please reply with growth for each item in this list.
1. Cn1nc(-c2ccccc2)c2c(-c3ccccc3)onc2c1=O
2. COc1cccc(-c2nn(-c3ccccc3)cc2-c2ccnc(NCCCN)c2)c1
3. COc1cccc(-c2nn(-c3ccccc3)cc2-c2ccnc(NCCCNS(=O)(=O)c3ccc(Br)cc3)c2)c1
4. N#C/C(=C\c1ccc(-c2ccccc2)o1)c1nc(-c2ccco2)cs1
5. C/C(=C(/c1ccccc1)c1ccc(N2C(=O)c3cccc4c(NCc5ccccc5)ccc(c34)C2=O)cc1)c1ccccc1
6. N#Cc1c(-c2ccc(O)cc2)c2c(N)nn(-c3ccccc3)c2[nH]c1=O
7. COC(=O)[C@]12CC[C@@H](C)[C@H](C)[C@@H]1C1=CC[C@@H]3[C@@]4(C)C[C@@H](O)OC[C@](C)(C=O)C4C(=O)C[C@@]3(C)[C@]1(C)CC2 (some centres not stated)
8. COc1cc(/C=N/NC(=S)NNC(=S)NC2CCCCC2)cc(OC)c1OC

Result block:
1. 38.3% (inactive)
2. 56.7% (inactive)
3. 42.5% (inactive)
4. 47.6% (inactive)
5. 103% (inactive)
6. 109% (inactive)
7. 5.82% (active)
8. 91.9% (inactive)

Hi team, please reply with growth for each item in this list.
1. Clc1ccc2c(NCCNc3nc(-c4ccccc4)cc(-c4ccccc4)n3)ccnc2c1
2. Cc1ccc(/C=C(\C#N)c2cc3ccccc3n2C)cc1
3. C=C(C)[C@@H]1CC[C@]2(/C=N/Nc3ccncc3)CC[C@]3(C)[C@H](CC[C@@H]4[C@@]5(C)CCCNC(C)(C)[C@@H]5CC[C@]43C)[C@@H]12
4. COC(=O)[C@]12CC[C@@H](C)[C@H](C)[C@@H]1C1=CC[C@@H]3[C@@]4(C)C[C@@H](OC(C)=O)[C@H](OC(C)=O)[C@@](C)(COC(C)=O)[C@@H]4[C@H](O)C[C@@]3(C)[C@]1(C)CC2
5. NS(=O)(=O)c1ccc(CCNC(=O)/C=C/c2ccc(Cl)cc2)cc1
6. CC1=NN(c2ccc(S(=O)(=O)O)cc2Cl)C(=O)C1
7. CC(=O)OC[C@]12CC[C@@H](/C(C)=N/O)[C@@H]1[C@H]1CC[C@@H]3[C@@]4(C)CCCNC(C)(C)[C@@H]4CC[C@@]3(C)[C@]1(C)CC2

Result block:
["-74.2% (active)", "10.3% (inactive)", "68.4% (inactive)", "7.64% (active)", "98.5% (inactive)", "112% (inactive)", "60.1% (inactive)"]

Taken from PubChem BioAssay (NCI).
